Data provenance: patent US20130012436A1

- Tested on: T1, rhesus serum albumin (rhesus, UniProt Q28522 17-600)
- T1 construct: also called RhSA
- T1 sequence (Q28522 17-600 limits assumed): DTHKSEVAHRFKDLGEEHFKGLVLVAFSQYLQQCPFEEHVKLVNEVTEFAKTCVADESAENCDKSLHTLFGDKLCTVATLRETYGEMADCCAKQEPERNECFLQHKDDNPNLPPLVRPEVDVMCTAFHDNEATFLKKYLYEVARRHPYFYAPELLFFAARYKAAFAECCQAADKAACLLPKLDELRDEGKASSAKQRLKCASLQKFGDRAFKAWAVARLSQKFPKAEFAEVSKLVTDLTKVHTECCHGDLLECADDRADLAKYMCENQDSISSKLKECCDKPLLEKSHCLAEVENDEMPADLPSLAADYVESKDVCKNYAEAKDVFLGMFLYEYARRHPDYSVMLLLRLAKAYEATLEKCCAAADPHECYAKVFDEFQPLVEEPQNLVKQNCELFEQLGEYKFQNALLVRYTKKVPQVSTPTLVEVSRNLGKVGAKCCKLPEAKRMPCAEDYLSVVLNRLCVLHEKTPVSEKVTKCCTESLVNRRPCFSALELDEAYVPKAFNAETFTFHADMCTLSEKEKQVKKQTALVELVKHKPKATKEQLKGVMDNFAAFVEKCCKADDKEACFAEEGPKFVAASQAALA
- Assay details: SPR (Biacore), albumin captured on CM5 chip, SABA flowed
What koff was measured for each of the following?
Report the value in s⁻¹ with no unit label.

So what does the record say about koff for SABA4.1 (designed binder) MGVSDVPRDLEMVAATPTSLLISWEDDSYYSRYYRITYGETGGNSPVQEFTVPSDLYTATISGLKPGVDYTITVYAVTYDVTDLIMHEPISINYRTEIDKPSQHHHHHH ?
0.00383

So what does the record say about koff for SABA1.1 (designed binder) MGVSDVPRDLEVVAATPTSLLISWHSYYEQNSYYRITYGETGGNSPVQEFTVPYSQTTATISGLKPGVDYTITVYAVYGSKYYYPISINYRTEIDKPSQHHHHHH ?
0.00545

So what does the record say about koff for SABA3.1 (designed binder) MGVSDVPRDLEVVAATPTSLLISWSNDGPGLSYYRITYGETGGNSPVQEFTVPSSQTTATISGLKPGVDYTITVYAVSYYTKKAYSAGPISINYRTEIDKPSQHHHHHH ?
0.0337

So what does the record say about koff for SABA2.1 (designed binder) MGVSDVPRDLEVVAATPTSLLISWPKYDKTGHYYRITYGETGGNSPVQEFTVPTRQTTATISGLKPGVDYTITVYAVSKDDYYPHEHRPISINYRTEIDKPSQHHHHHH ?
0.000442
